Biological target: T1, Recombinant human PSGL-1(ECD)-hFc1 (R&D Systems, Cat. 3345-PS) (human, UniProt Q14242 42-305)
T1 construct: Bought; Gln42-Val295 counted on AAC50061; also called PSGL-1-Fc; PSGL-1-hFc1 chimera; not shown: human IgG1 Fc, Pro100-Lys330
T1 sequence: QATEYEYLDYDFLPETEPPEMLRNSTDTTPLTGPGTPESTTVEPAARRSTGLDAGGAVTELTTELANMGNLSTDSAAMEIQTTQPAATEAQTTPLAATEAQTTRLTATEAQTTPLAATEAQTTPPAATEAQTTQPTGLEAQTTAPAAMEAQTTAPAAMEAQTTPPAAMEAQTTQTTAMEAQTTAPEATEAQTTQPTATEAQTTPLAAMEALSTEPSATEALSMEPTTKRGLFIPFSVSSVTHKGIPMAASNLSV
Assay: ELISA, 50 nM mAb
Assignment: determine reported A450nm for the given binders.

Problem: Report measured A450nm; entry is 07E07 (antibody, IgG4, V domains shown) VH: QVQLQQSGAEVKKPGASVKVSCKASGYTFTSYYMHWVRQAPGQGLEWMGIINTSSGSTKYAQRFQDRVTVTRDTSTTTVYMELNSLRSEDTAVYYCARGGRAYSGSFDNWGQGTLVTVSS VL: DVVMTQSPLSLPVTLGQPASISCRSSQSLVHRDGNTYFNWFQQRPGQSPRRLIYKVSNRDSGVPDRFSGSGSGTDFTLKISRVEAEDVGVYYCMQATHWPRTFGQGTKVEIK
Result: 2.44 A450nm

Problem: Report measured A450nm; entry is 03E05 (antibody, IgG4, V domains shown) VH: EVKLLESGGDLAQTGGSLRLSCVASGFTFSSYPMSWVRQAPGKGLEWVSAIRRSGATQYADSVKGRFTISRDNSKNTVYLQMNSLRVEDTAVYYCAKGTYDLGQGTLVTVSS VL: DIVMTQTPLSLPVTLGQPASISCRSSQSLVYSDGNTYLNWFHQRPGQSPRRLIYKVSNRDSGVPDRFSGSGSDTEFTLKISRVEAEDVGVYYCMQATHWPLTFGGGTKVEIK
Result: 2.28 A450nm
